Tested on: MARIMO
Test: cell viability relative to vehicle control; higher = less cytotoxic;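 also: after 48 h exposure read by CellTiter-Glo luminescence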
Conditions: 10 µM; SRSF2 genotype: SRSF2 P95H/wt
Structures can show the parent of a compound that is named as a salt.
Task for the reader: assign each of the following compounds its reported cell viability.
Number in %, nothing else.

Param item: CC(=O)O/N=C1/C(c2c(O)[nH]c3cc(Br)ccc23)=Nc2ccccc21 ; param system: MARIMO; output cell viability: 82.2

The compound COc1ncc(-c2ccc3nccc(-c4ccnnc4)c3c2)cc1NS(=O)(=O)c1ccc(F)cc1F on MARIMO: cell viability was 26.4

Record CCCOc1ccc2[nH]c(NC(=O)OC)nc2c1 / MARIMO, cell viability recorded as 6.59

// cell viability (MARIMO) for COc1cccc2c1C(=O)c1c(O)c3c(c(O)c1C2=O)C[C@@](O)(C(=O)CO)C[C@@H]3O[C@H]1C[C@H](N)[C@H](O[C@@H]2CCCCO2)[C@H](C)O1 = 5.07

// cell viability (MARIMO) for O=C(Cc1cccc(OC(F)(F)F)c1)Nc1ccc(CCCCc2nnc(NC(=O)Cc3ccccn3)s2)nn1 = 23.7

cell viability on MARIMO for O=C(Oc1coc(CSc2ncccn2)cc1=O)c1ccc([N+](=O)[O-])cc1 is 98.3

Readout cell viability for CCCCCCCCCC=O , test system MARIMO, was 99.1

Noted cell viability for COc1ccccc1N1CCN(CCN2C(=O)CC3(CCCC3)CC2=O)CC1 [BMY 7378 Dihydrochloride] , tested on MARIMO: 95.3

The reported MARIMO cell viability of Cc1c(C(=O)Nc2ccc(N3C[C@@H](C)O[C@@H](C)C3)nc2)cccc1-c1ccc(OC(F)(F)F)cc1 is 86.2

Per the reported MARIMO data, CC(C)[C@H](O)C(=O)N[C@@H](C)C(=O)N[C@@H]1C(=O)N(C)CCc2ccccc21 has cell viability of 96

MARIMO data for CC(C)Cc1ccc(C(C)C(=O)O)cc1 (configuration not stated) ; its cell viability: 95.1

# value of cell viability, MARIMO, item Cn1c(=O)c(Oc2ccc(F)cc2F)cc2cnc(NC(CCO)CCO)nc21 = 98.9

CNC(=O)c1cccc(-c2ccc3c(N4CCOC[C@@H]4C)nc(N4CCOC[C@@H]4C)nc3n2)c1 on MARIMO gives cell viability = 60.8

Param item: COc1ccc(CC(=O)O)cc1OC ; param system: MARIMO; output cell viability: 89.2

Case O=C1NC(=O)C(c2cnc3ccccn23)=C1c1cn2c3c(cc(F)cc13)CN(C(=O)N1CCCCC1)CC2 , MARIMO, cell viability recorded as 94.4

// cell viability (MARIMO) for CC(C)CN(CC(=O)N1CCN(CC(OCc2ccc3ccccc3c2)c2ccc(Cl)cc2Cl)CC1)CC(C)C (configuration not stated) = 54.3

Measured on MARIMO, Cc1cccc(C)c1NC(=O)c1cc(S(N)(=O)=O)c(Cl)cc1O [Xipamide] has a documented cell viability of 103

* * *

Tested on: MOLM14
Assay: cell viability relative to vehicle control; higher = less cytotoxic
Conditions: 10 µM; SRSF2 genotype: SRSF2 P95H/wt
Where a name gives a salt, the structure may show the parent alone.
Exercise: state measured cell viability for each of the compounds provided.
The number alone won't do; follow it with the unit.

Short answer for CO[C@H]1/C=C/O[C@@]2(C)Oc3c(C)c(O)c4c(O)c(c(/C=N/N5CCN(C)CC5)c(O)c4c3C2=O)NC(=O)/C(C)=C\C=C\[C@H](C)[C@H](O)[C@@H](C)[C@@H](O)[C@@H](C)[C@H](OC(C)=O)[C@@H]1C : cell viability was 83.1%

The reported value for CCN(CCCc1ccccc1)CCCc1ccccc1 [Alverine Citrate] in terms of cell viability is 80.3%

cell viability for COc1ccc(-c2ccc3c(N4CCOC[C@@H]4C)nc(N4CCOC[C@@H]4C)nc3n2)cc1CO is 30.4%

# cell viability of Cc1c(Cc2ccc3ccccc3n2)c2cc(F)ccc2n1CC(=O)O = 98.5%

Input C1=N/C2=N/c3ccc(OCCN4CCCC4)c(c3)COC/C=C/COCc3cccc(c3)C(=C1)N2 [Pacritinib (SB1518)] . Output cell viability: 0.21%

Value of cell viability reported for the compound C=C(CCC=C(C)C)[C@H]1CC[C@]2(C)[C@@H]1[C@H](O)C[C@@H]1[C@@]3(C)CC[C@H](O[C@@H]4O[C@H](CO)[C@@H](O)[C@H](O)[C@H]4O[C@@H]4O[C@H](CO)[C@@H](O)[C@H](O)[C@H]4O)C(C)(C)[C@@H]3CC[C@]12C [Ginsenoside Rk1] is 108%

cell viability for COc1ccnc(C[S+]([O-])c2nc3cc(OC(F)F)ccc3[nH]2)c1OC (configuration not stated) [Pantoprazole (Protonix)] is 115%

Origin of values: the supplement of paper PMC10981050
